- System: NCI-H460
- measurement-protocol: NCI tumour cell line growth inhibition, 48 h
Activity calls are given as the source filed them. No stated cut-off is given here; in the data, active = GI50 up to about 1.1 µM and inactive = higher.
Your response should consist of one outcome taken from Y = active, N = inactive

[[record]]
compound = "COC(=O)/C(C#N)=C1\\NN=NN1c1ccc(OC)cc1"
class_assignment = "N"

[[record]]
compound = "COC(=O)C1=C(C(=O)OC)C2(C)CCC(=O)C1O2 (stereo not given)"
class_assignment = "N"

[[record]]
compound = "c1ccc(N/N=N/c2ccc(-c3nc4ccccc4[nH]3)cc2)nc1"
class_assignment = "N"


API: the following record is the query input.
Write down the call the test reported for this compound. Item: O=CC(O)C(O)C1OC(=O)c2cc(O)c(O)c(O)c2C2=C(O)C(O)=C3OC(=O)c4c(c(O)c(O)c5c4C3C2C(=O)O5)-c2c(cc(O)c(O)c2O)C(=O)OCC1O (stereo not given)
N

Source listed as ChEMBL document CHEMBL1201862.
